Listing: pIC50 of selected molecules
Tested on: HT-29 cells
Assay: CellTiter-Glo luminescent cell viability assay with HT-29 cells (72h incubation)
Format: cell-based, human
Conditions: Homo sapiens, HT-29, HT29 cells, read-out: CTG HT29
pIC50: −log10 of the molar value.
Assay readout: pIC50

1) Cc1ccc2cc1CNC(=O)[C@H](CCc1ccccc1)NC(=O)[C@@H](NC(=O)OCc1ccccc1)CC(=O)N1CC(C)CC(CCO2)C1 (stereo partly shown) [Compound 337]	> 7.00
2) CC(=O)N[C@H]1CCCC(=O)N2CCOC(CCOc3ccc(C)c(c3)CNC(=O)[C@H](CCc3ccccc3)NC1=O)C2 (stereo partly shown) [Compound 186]	6.30 to 7.00
3) Cc1ccc2cc1CNC(=O)[C@H](CCc1ccccc1)NC(=O)[C@@H](N)CC(=O)N1CCCC(CCO2)C1 (stereo partly shown) [Compound 8]	6.30 to 7.00
4) CNCC(=O)N[C@H]1CC(=O)N2CCCC(CCOc3ccc(C)c(c3)CNC(=O)[C@H](CCc3ccccc3)NC1=O)C2 (stereo partly shown) [Compound 129]	> 7.00
5) Cc1ccc2cc1CNC(=O)[C@H](Cc1c[nH]c3ccccc13)NC(=O)CCC(=O)N1CCCC(CCO2)C1 (stereo partly shown) [Compound 77]	5.30 to 6.00
6) CC(=O)N[C@H]1CC(=O)N2CCCC(CCOc3ccc(C)c(c3)CNC(=O)C(Cc3ccccc3)NC1=O)C2 (stereo partly shown) [Compound 558]	> 7.00
7) CC(=O)N[C@H]1CCC(=O)N2CCCC(CCOc3ccc(C)c(c3)CNC(=O)[C@H](CCc3ccccc3)NC1=O)C2 (stereo partly shown) [Compound 215]	> 7.00

###

Listed next: entries and their corresponding pIC50.
Molecular target: β5 subunit of the human constitutive proteasome (CPS) (Homo sapiens)
Test: β5 inhibition assay, human constitutive proteasome (Suc-LLVY-AMC)
Details: IC50 class, Suc-LLVY-AMC substrate
pIC50: −log10 of the molar value.
Assay readout: pIC50

1. Cc1ccc2cc1CNC(=O)[C@H](CCc1ccccc1)NC(=O)[C@@H](NC(=O)CN1CCNCC1)CC(=O)N1CCCC(CCO2)C1 (stereo partly drawn) [Compound 126]	> 7.00
2. Cc1ccc2cc1CNC(=O)[C@H](CCc1ccccc1)NC(=O)[C@@H](NCC(F)(F)F)CC(=O)N1CCCC(CCO2)C1 (stereo partly drawn) [Compound 709]	> 7.00
3. Cc1ccc2cc1CNC(=O)[C@H](CCc1ccccc1)NC(=O)[C@@H](NC(=O)NC1CCCCC1)CC(=O)N1CCCC(CCO2)C1 (stereo partly drawn) [Compound 593]	> 7.00
4. Cc1ccc2cc1CNC(=O)[C@H](CCc1ccccc1)NC(=O)[C@@H](NC(=O)N1CCc3cnccc31)CC(=O)N1CCCC(CCO2)C1 (stereo partly drawn) [Compound 703]	> 7.00
5. Cc1ccc2cc1CNC(=O)[C@H](CCc1ccccc1)NC(=O)[C@@H](NC(=O)CCNC(=O)c1ccc(C3CCCCC3)cc1)CC(=O)N1CCCC(CCO2)C1 (stereo partly drawn) [Compound 656]	> 7.00
6. CC(=O)N[C@H]1CCC(=O)NCCCCOc2ccc(C)c(c2)CNC(=O)[C@H](CCc2ccccc2)NC1=O [Compound 171]	6.30 to 7.00

###

System: B-cells isolated from PBMC's
Assay: Chymotrypsin-like ProteasomeGlo assay in B-cells isolated from PBMCs
Type: cell-based, human
Conditions: Homo sapiens; B-cells isolated from PBMC's; read-out: Pglo B-Cell
IC50 listing for selected compounds.
Assay readout: IC50

1) Cc1ccc2cc1CNC(=O)[C@H](CCc1ccccc1)NC(=O)CCCCC(=O)N1CCCC(CCO2)C1 (some centres unmarked)	< 0.1 µM
2) Cc1ccc2cc1CNC(=O)[C@H](CCc1ccccc1)NC(=O)[C@@H](NC(=O)c1ccccn1)CC(=O)N1CCCC(CCO2)C1 (some centres unmarked)	< 0.1 µM
3) Cc1ccc2cc1CNC(=O)[C@H](Cc1c[nH]c3ccccc13)NC(=O)CCC(=O)N1CCCC(CCO2)C1 (some centres unmarked)	0.1 to 0.5 µM
4) Cc1ccc2cc1CNC(=O)[C@H](CCc1ccccc1)NC(=O)[C@@H](NC(=O)Cc1ccccc1C)CC(=O)N1CCCC(CCO2)C1 (some centres unmarked)	< 0.1 µM
5) Cc1ccc2cc1CNC(=O)[C@H](CCc1ccccc1)NC(=O)[C@@H](NC(=O)[C@@H](C)c1ccccc1)CC(=O)N1CCCC(CCO2)C1 (some centres unmarked)	< 0.1 µM
6) Cc1ccc2cc1CNC(=O)[C@H](CCc1ccccc1)NC(=O)[C@@H](NC(=O)c1ccncc1)CC(=O)N1CCCC(CCO2)C1 (some centres unmarked)	< 0.1 µM
7) Cc1ccc2cc1CNC(=O)C(CCc1cccnc1)NC(=O)CCC(=O)N1CCCC(CCO2)C1 (centres unmarked)	< 0.1 µM
8) Cc1ccc2cc1CNC(=O)[C@H](CCc1ccccc1)NC(=O)[C@@H](NC(=O)c1n[nH]c3ccccc13)CC(=O)N1CCCC(CCO2)C1 (some centres unmarked)	0.1 to 0.5 µM
9) COc1ccc(CC(=O)N[C@H]2CC(=O)N3CCCC(CCOc4ccc(C)c(c4)CNC(=O)[C@H](CCc4ccccc4)NC2=O)C3)cc1 (some centres unmarked)	< 0.1 µM
10) Cc1ccc2cc1CNC(=O)[C@H](CCc1ccccc1)NC(=O)[C@@H](Nc1nc3ccccc3[nH]1)CC(=O)N1CCCC(CCO2)C1 (some centres unmarked)	0.1 to 0.5 µM
11) Cc1ccc2cc1CNC(=O)[C@H](CCc1ccccc1)NC(=O)[C@@H](N1C(=O)CCC1=O)CC(=O)N1CCCC(CCO2)C1 (some centres unmarked)	< 0.1 µM
12) Cc1ccc2cc1CNC(=O)[C@H](CCc1ccccc1)NC(=O)CCC(=O)N1CCCC(CCO2)C1 (some centres unmarked)	< 0.1 µM
13) COc1ccc(CC(=O)N[C@H]2CC(=O)N3CCCC(CCOc4ccc(C)c(c4)CNC(=O)[C@H](CCc4ccccc4)NC2=O)C3)cc1OC (some centres unmarked)	< 0.1 µM
14) Cc1ccc2cc1CNC(=O)[C@H](CCc1ccccc1)NC(=O)[C@@H](NC(=O)C(C)(C)C)CC(=O)N1CCCC(CCO2)C1 (some centres unmarked)	< 0.1 µM
15) Cc1ccc2cc1CNC(=O)[C@H](CCc1ccccc1)NC(=O)[C@@H](NC(=O)C1CCCc3ccccc31)CC(=O)N1CCCC(CCO2)C1 (some centres unmarked)	< 0.1 µM
16) Cc1ccc2cc1CNC(=O)[C@H](CCc1ccccc1)NC(=O)[C@@H](NC(=O)c1ncccn1)CC(=O)N1CCCC(CCO2)C1 (some centres unmarked)	< 0.1 µM
17) Cc1ccc2cc1CNC(=O)[C@H](Cc1ccccc1)NC(=O)CCC(=O)N1CCCC(CCO2)C1 (some centres unmarked)	0.5 to 1 µM

###

IC50: recorded values
System: HT-29 cells
Test: CellTiter-Glo luminescent cell viability assay with HT-29 cells (72h incubation)
Type: cell-based, human
Conditions: Homo sapiens, HT-29, HT29 cells, read-out: CTG HT29
Assay readout: IC50

1. CCC1(C(=O)N[C@H]2CC(=O)N3CCCC(CCOc4ccc(C)c(c4)CNC(=O)[C@H](CCc4ccccc4)NC2=O)C3)CCNCC1 (stereo partly shown)	< 100 nM
2. CC(=O)N[C@H]1CC(=O)N2CCC2(C)COc2ccc(C)c(c2)CNC(=O)[C@H](CCc2ccccc2)NC1=O (stereo partly shown)	100 to 500 nM
3. Cc1ccc2cc1CNC(=O)C(c1cnn(C)c1)NC(=O)[C@@H](NC(=O)CN1CCCC1)CC(=O)N1CCCC(CCO2)C1 (stereo partly shown)	100 to 500 nM
4. Cc1ccc2cc1CNC(=O)[C@H](CCc1ccccc1)NC(=O)[C@@H](NC(=O)Cc1ccc(N)cc1)CC(=O)N1CCC[C@H](CCO2)C1	< 100 nM
5. Cc1ccc2cc1CNC(=O)C(CCc1ccncc1)NC(=O)[C@@H](NC(=O)C1(c3ccc(N)cc3)CC1)CC(=O)N1CCCC(CCO2)C1 (stereo partly shown)	< 100 nM
6. CC(=O)N[C@H]1CC(=O)N2CCC(CC2)Oc2ccc(C)c(c2)CNC(=O)[C@H](CCc2ccccc2)NC1=O	100 to 500 nM
7. Cc1ccc2cc1CNC(=O)[C@H](CCc1ccccc1)NC(=O)[C@@H](NC(=O)c1ccccn1)CC(=O)N1CCCC(CCO2)C1 (stereo partly shown)	< 100 nM
8. Cc1ccc2cc1CNC(=O)[C@H](CCc1ccccc1)NC(=O)[C@@H](NC(=O)OCc1ccccc1)CCCCC(=O)NCCCCO2	< 100 nM
9. Cc1ccc2cc1CNC(=O)[C@H](CCc1ccccc1)NC(=O)[C@@H](NC(=O)Cc1cccc(N)c1)CC(=O)N1CCCC(CCO2)C1 (stereo partly shown)	< 100 nM
10. Cc1ccc2cc1CNC(=O)[C@H](CCc1ccccc1)NC(=O)[C@@H](NC(=O)OCc1ccccc1)CCC(=O)N1CCCC3(CC(C3)O2)C1	100 to 500 nM
